Molecular target: Orexin/Hypocretin receptor type 1 (Homo sapiens) (UniProt O43613)
Sequence (O43613 whole entry, looked up): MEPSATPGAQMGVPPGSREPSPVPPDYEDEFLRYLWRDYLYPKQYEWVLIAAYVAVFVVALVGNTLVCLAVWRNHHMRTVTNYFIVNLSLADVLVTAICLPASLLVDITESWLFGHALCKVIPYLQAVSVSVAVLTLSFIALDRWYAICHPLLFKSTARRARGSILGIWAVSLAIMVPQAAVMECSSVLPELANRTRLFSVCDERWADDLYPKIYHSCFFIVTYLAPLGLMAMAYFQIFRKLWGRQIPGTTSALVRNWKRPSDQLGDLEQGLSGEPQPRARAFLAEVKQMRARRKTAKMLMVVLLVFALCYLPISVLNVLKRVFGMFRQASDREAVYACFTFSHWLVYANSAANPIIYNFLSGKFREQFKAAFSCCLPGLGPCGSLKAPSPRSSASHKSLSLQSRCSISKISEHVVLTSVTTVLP
Test: antagonists of human orexin 1 receptor (OX1R) (AID 485270);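 note: 0% = agonist challenge alone and 100% = reference antagonist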
Details: OX1R-expressing cells, FRET antagonist read-out; at 6.6 µM; hits give high values
In all, about 330,000 compounds went through this assay and about 5,800 (1.8%) were called active. This excerpt belongs to a sample that is enriched for actives.
Measured inhibition values are reported for all entries that follow.
READOUT TYPE: inhibition (%)

| COMPOUND | READOUT TYPE | QUANTITY UNIT | OBSERVED VALUE |
| --- | --- | --- | --- |
| C[C@H](NC(=O)c1ccccc1Cl)C(=O)OCC(=O)N1CCN(c2ccccc2)CC1 | inhibition | % | 3.17 |
| S=C(NC1CCCCC1)NN1CCOCC1 | inhibition | % | 18.3 |
| COc1ccc(CC(=O)N[C@@H]2c3cc(OC)c(OC)cc3C[C@H]2OCc2ccccc2)cc1 | inhibition | % | 16 |
| COc1cc(C(=O)OCc2ccc([N+](=O)[O-])cc2)cc(OC)c1OC | inhibition | % | 14.5 |
| COc1ccc(N2CCN(C(CNS(=O)(=O)c3ccc(C)cc3)c3ccccc3)CC2)cc1 (stereo not drawn) | inhibition | % | 6.01 |
| Cc1ccc(NS(=O)(=O)c2c(C)[nH]c(C)c2C(=O)N2CCCCC2)c(C)c1 | inhibition | % | 21.7 |
| Cc1noc(C)c1S(=O)(=O)N(C)C[C@H]1Oc2c(NC(=O)Nc3ccc4c(c3)OCO4)cccc2C(=O)N([C@H](C)CO)C[C@@H]1C | inhibition | % | 2.76 |
| C[C@]12c3[nH]c4ccc(Cl)cc4c3CCN1C(=O)[C@@H](CC(=O)NCCCn1ccnc1)C[C@@H]2C(=O)N1CCOCC1 | inhibition | % | 14.5 |
| Cc1cc(N2CCCC2)ccc1NC(=O)COc1ccc(Cl)cc1 | inhibition | % | 8.39 |
| O=C(NCCN1CCOCC1)c1cc(-c2cccs2)nc2ccccc12 | inhibition | % | 18.8 |
| Cc1ccc(C)c(N2CCN(S(=O)(=O)c3c(C)[nH]c(C)c3C(=O)N3CCCC3)CC2)c1 | inhibition | % | 5.67 |
| CCOC(=O)CSc1nnc(-c2ccc([N+](=O)[O-])cc2)o1 | inhibition | % | 58.6 |
| CC1O[C@@H](OC2C(O)C(C)O[C@H](OC(=O)[C@]34CCC(C)(C)C[C@H]3C3=CCC5[C@@]6(C)CC(O)C(O[C@@H]7OC(CO)C(O)[C@@H](O)[C@@H]7O)[C@@](C)(C(=O)O)C6CC[C@@]5(C)[C@]3(CO)CC4)C2O[C@H]2OC(C)[C@@H](O[C@@H]3OCC(O[C@@H]4OC(CO)C(O)[C@H](O)C4O)[C@@H](O)[C@@H]3O)[C@H](O)C2O)C(O)C(O)C1O (stereo partly drawn) | inhibition | % | 10.6 |
| CCn1c(O)c(N=NC2=NC(=O)CS2)c2cc(C)ccc21 | inhibition | % | 101 |
| CC(C)OC(=O)c1cc(NC(=O)C2C3CCC(O3)C2C(=O)O)cc(C(=O)OC(C)C)c1 (stereo not drawn) | inhibition | % | 8.17 |
| CC(C)(C)NS(=O)(=O)NC(=O)C1=C(N2CCCC2)COC1=O | inhibition | % | -2.54 |
| Cc1cccc(C)c1OC(=O)CSc1nnc(-c2ccccc2)o1 | inhibition | % | 27.6 |
| O=C(N/N=C/c1c[nH]c2ccccc12)c1ccccc1O | inhibition | % | -0.06 |
| COc1ccc(C(=O)OCC(=O)Nc2ccc3[nH]c(=O)[nH]c3c2)c(OC)c1OC | inhibition | % | 18 |
| COC(=O)Cn1c2ccc(C)cc2c2nc(C)sc21 | inhibition | % | 11.6 |
| Cc1c(NC(=O)CN(C)CC(=O)Nc2ccc(F)c(F)c2F)c(=O)n(-c2ccccc2)n1C | inhibition | % | 4.65 |
| O=C(CSc1nnc(-c2ccc([N+](=O)[O-])cc2)o1)Nc1ccccn1 | inhibition | % | 20.6 |
| O=C(COC(=O)COc1ccccc1F)Nc1cccc(S(=O)(=O)N2CCCCC2)c1 | inhibition | % | -4.71 |
| COc1cccc(CC2(CO)CCCN(CC3=Cc4cc(OC)ccc4OC3)C2)c1 (stereo not drawn) | inhibition | % | 25.7 |
| CC1Sc2ccc(C(=O)NCc3ccccc3Cl)cc2NC1=O (stereo not drawn) | inhibition | % | 1.56 |
| CC(C)OC(=O)c1c(NC(=O)c2ccco2)sc2c1CCCC2 | inhibition | % | 12.4 |
| O=C(COC(=O)c1ccncc1)Nc1ccc2c(c1)OCO2 | inhibition | % | 9.22 |
| CCn1c(O)c(N=NC(=O)c2cccc(S(=O)(=O)N3CCCCC3)c2)c2ccccc21 | inhibition | % | 11 |
| COc1ccc(-n2c(SCC(=O)Nc3ccc4c(c3)OCO4)nnc2C(C)N2CCCCC2)cc1 (stereo not drawn) | inhibition | % | 7.85 |
| COc1ccc(CCNC(=O)NS(=O)(=O)c2ccc(C)cc2)cc1OC | inhibition | % | -2.44 |
| Cc1ccc(C)c(NS(=O)(=O)c2c(C)[nH]c(C)c2C(=O)N2CCCCC2)c1 | inhibition | % | 49.2 |
| Cc1cc(NC(=O)CSc2nccn2-c2ccc([N+](=O)[O-])cc2)no1 | inhibition | % | 70.4 |
| Cc1ccc(CNC(=O)COC(=O)C2CCC2)cc1 | inhibition | % | 8.9 |
| CCNC(=O)N(CC)C[C@H]1N[C@@](CC)(C(=O)OC)[C@H]2C(=O)N(Cc3ccccc3)C(=O)[C@@H]12 | inhibition | % | -4.57 |
| Cc1cccc(NC(=O)c2ccc3c(=O)n(CC4CCCO4)c(=S)[nH]c3c2)c1 (stereo not drawn) | inhibition | % | 17.1 |
| CCCCN(C)CCCNC(=O)c1cc(-c2cccs2)nc2ccccc12 | inhibition | % | 13.3 |
| O=C(Nc1nnc(-c2ccccc2)o1)c1cc(-c2cccs2)nc2ccccc12 | inhibition | % | 88.8 |
| O=C(CN1CCCC1)N1CCN(c2ccccc2)CC1 | inhibition | % | 3.2 |

###

Molecular target: Orexin/Hypocretin receptor type 1 (Homo sapiens)
Assay: antagonists of human orexin 1 receptor (OX1R) (AID 485270);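 note: 0% = agonist challenge alone and 100% = reference antagonist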
Details: OX1R-expressing cells, FRET antagonist read-out; at 6.6 µM
The campaign covered roughly 330,000 compounds. About 5,800 (1.8%) were called active. Rule as the data show it: active = inhibition mostly above about 38% (no sharp cut-off); inactive = mostly below about 40%. This excerpt belongs to a sample that is enriched for actives.
Possible outcomes: active, inactive

| MOL | ASSIGNED CLASS |
| --- | --- |
| COc1ccc(C)cc1-n1nnnc1SCc1nc2ccccc2c(=O)[nH]1 | inactive |
| CN(C(=O)c1cccc(NC(=O)C2CCN(C(=O)OC(C)(C)C)CC2)c1)C1CCC1 | inactive |
| O=C1c2ccccc2[C@@H]2C[C@@H](O)[C@H](Nc3ccccc3Cl)CCN12 | inactive |
| Cc1ccc(Nc2nc(CSc3nnnn3-c3ccccc3)cc(=O)[nH]2)cc1 | active |
| Cc1ccc(-c2noc(CSc3nnnn3-c3ccccc3)n2)cc1 | inactive |

###

Target: Orexin/Hypocretin receptor type 1 (Homo sapiens) (UniProt O43613)
Assay: antagonists of human orexin 1 receptor (OX1R) (AID 485270);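 note: 0% = agonist challenge alone and 100% = reference antagonist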
Settings: OX1R-expressing cells, FRET antagonist read-out; at 6.6 µM
In all, about 330,000 compounds went through this assay and about 5,800 (1.8%) were called active. No stated cut-off is given here; in the data, active means inhibition mostly above about 38% (no sharp cut-off); inactive means mostly below about 40%. Only a selection was taken, and actives are over-represented in it overall.
Possible outcomes: label 1 = active, label 0 = inactive

| MOL | ASSIGNED CLASS |
| --- | --- |
| O=C(CNC(=O)Cc1ccccc1)N=Nc1c(O)[nH]c2ccc(Br)cc12 | label 0 |
| COc1cccc(C(=O)NC(=O)Nc2nc(C)cc(C(F)(F)F)n2)c1 | label 1 |
| Cc1cc(NC(=O)COC(=O)/C=C/c2ccc(C)o2)no1 | label 0 |
| CCOC(=O)Cn1c(O)c(N=NC(=O)CNC(=O)Cc2ccccc2)c2ccccc21 | label 1 |
| O=C1CC2(CCCC2)C(=O)N1CN1CCN(S(=O)(=O)c2ccc(F)cc2F)CC1 | label 0 |
| Cc1cc(C)nc(NC(=O)Nc2ccccc2C(F)(F)F)n1 | label 0 |
| Cc1ccc(-c2c[n+](=O)c3c(n2[O-])CCC3)cc1 | label 0 |
| Cc1ccc(-c2c(C)n([O-])c3c([n+]2=O)CCC3)cc1 | label 0 |
| CN(CC(=O)Nc1ccc(C(N)=O)cc1)S(=O)(=O)c1ccc2c(c1)OCCO2 | label 0 |
| COc1ccc(CNC(=O)C[C@H]2C[C@H](C(=O)N3CCOCC3)[C@@]3(C)c4[nH]c5cc(CCC(=O)N(C)C)ccc5c4CCN3C2=O)cc1OC | label 0 |
